Provide the reported minimal effective concentration of each item.
# Tested on: Trypanosoma brucei brucei
# METHOD: Antikinetoplastid activity against Trypanosoma brucei brucei CMP by drug incubation infectivity test
# Assay type: functional
# EXPERIMENTAL_SETUP: read-out: MEC

The measured minimal effective concentration associated with "COc1ccc(C(=O)Nc2c(O)c3ccccc3n(C)c2=O)cc1" reads > 200 µM

The recorded minimal effective concentration for entry "CCCC(=O)Nc1c(O)c2ccccc2n(C)c1=O" equals > 200 µM

Lab note: measured minimal effective concentration of "Cn1c(=O)c(NC(=O)CCCCCCCCCCOn2nnc3ccccc32)c(O)c2ccccc21" was 200 µM

Input "COc1cc(C(=O)Nc2c(O)c3ccccc3n(C)c2=O)cc(OC)c1OC" . Output minimal effective concentration: > 200 µM

minimal effective concentration reading for "COc1ccc(C(=O)Nc2cc3ccccc3n(C)c2=O)cc1" : > 200 µM

So, "Cc1ccc(S(=O)(=O)Oc2c(N)c(=O)n(C)c3ccccc23)cc1" ? Its minimal effective concentration was 12.5 µM

The reported minimal effective concentration of the compound "Cc1ccc(S(=O)(=O)Oc2c([N+](=O)[O-])c(=O)n(C)c3ccccc23)cc1" was > 200 µM

For this compound ( "COc1cc(C(=O)Nc2c(OS(=O)(=O)c3ccc(C)cc3)c3ccccc3n(C)c2=O)cc(OC)c1OC" ), measured minimal effective concentration is > 200 µM

// minimal effective concentration lookup, compound = "CCCC(=O)Nc1c(OS(=O)(=O)c2ccc(C)cc2)c2ccccc2n(C)c1=O" , result: > 200 µM

Entry "Cc1ccc(S(=O)(=O)Oc2c(NC(=O)c3ccc(F)cc3)c(=O)n(C)c3ccccc23)cc1" — recorded minimal effective concentration = > 200 µM

---

# System: Leishmania donovani
# METHOD: Antikinetoplastid activity against Leishmania donovani MHOM/ET/67/HU3 promastigotes after 3 days incubation at 27 degC under dark condition and 5% CO2 atmosphere by MTT assay
# Assay type: functional, organism-based
# EXPERIMENTAL_SETUP: MHOM/ET/67/HU3, 72 h
ASSAY_ENDPOINT: pIC50
Worth noting: pIC50 values are minus log10 of concentrations stated in mol/L.

Recorded result, "COc1ccc(C(=O)Nc2c(O)c3ccccc3n(C)c2=O)cc1" , pIC50: 4.96

# compound "CCCC(=O)Nc1c(OS(=O)(=O)c2ccc(C)cc2)c2ccccc2n(C)c1=O" ; its pIC50 = 4.30

Form field pIC50, entry "COc1cc(C(=O)Nc2c(OS(=O)(=O)c3ccc(C)cc3)c3ccccc3[nH]c2=O)cc(OC)c1OC" : 4.74

Recorded pIC50 (compound "COc1cc(C(=O)Nc2c(OS(=O)(=O)c3cccs3)c3ccccc3n(C)c2=O)cc(OC)c1OC" ): 4.85

Per the record, "Cc1ccc(S(=O)(=O)Oc2c(NC(=O)c3ccc(F)cc3)c(=O)n(C)c3ccccc23)cc1" has pIC50 of 4.31

Measured pIC50 of "Cc1ccc(S(=O)(=O)Oc2c(NC(=O)CCCCCCCCCCOn3nnc4ccccc43)c(=O)n(C)c3ccccc23)cc1" : 4.43

---

# Tested on: Leishmania donovani
# METHOD: Antikinetoplastid activity against Leishmania donovani MHOM/ET/67/HU3 promastigotes after 3 days incubation at 27 degC under dark condition and 5% CO2 atmosphere by MTT assay
# Type: functional, organism-based
# EXPERIMENTAL_SETUP: MHOM/ET/67/HU3, 72 h
pIC50: −log10 of the molar value.
ASSAY_ENDPOINT: pIC50

Per the reported Leishmania donovani data, "Cn1c(=O)c(NC(=O)c2ccc(F)cc2)c(O)c2ccccc21" has pIC50 of < 4.00

The compound "Cn1c(=O)c(NC(=O)c2cc3ccccc3[nH]2)c(O)c2ccccc21" , when measured on Leishmania donovani, yielded pIC50 of < 4.00

Tested on Leishmania donovani: "COc1ccc(C(=O)Nc2cc3cc(Br)ccc3n(C)c2=O)cc1" . Observed pIC50: < 4.00
